System: T1, mouse TMEM106B (mouse, UniProt Q80X71 2-275)
T1 construct: Full-length cDNA transiently transfected into HEK293 cells; also called muTMEM106B; murine TMEM106B
Assay procedure: flow cytometry, HEK293 cells transiently transfected with murine TMEM106B
Below, each of the binders is paired with its reported fold-change in binding over parental HEK293 cells value.
Field format: number, assumed fold, no unit text.

Binder	Unit descriptor	Measured result
TM-84 (antibody, V domains shown, Purified from mouse hybridoma) VH: QVQLQQSGAELVKPGASVKMSCKASGYTFTTFPIEWMKQNHGKSLEWIGNFHPYNDDTKYNEKFKGKATLTVEKSSSTVYLELSRLTSDDSAVYYCARYFYGGMDYWGQGTSVTVSS VL: DIQMTQSPASLSVSVGETVTITCRASENIYSSLGWYHQKQGKSPQLLVFAATNLADGVPSRFSGSGSGTQYSLKINSLQSEDFGTYYCQHLWSVPWTFGGGTKLEIK	fold	9.62

Value of fold-change in binding over parental HEK293 cells reported for the binder TM-93 (antibody, V domains shown, Purified from mouse hybridoma) VH: QVQLKESGPGLVAPSQSLSITCTVSGFSLSSYGISWVRQPPGKGLEWLGVIWTGGGTNYNSALESRLSITKDNSKSQVFLKMNSLQTDDTARYYCARNPPKIFYDYLMYFDYWGQGTTVTVSS VL: DIVMTQSHKLMSTSVGDRVSITCKASQDVGSAVAWYQQKPGQSPQLLIYWSSTRLPGVPDRFTGSGSGTDFTLTISNVQSEVLADYFCQQYTSYPLTFGGGTKLEIK is 8.83

Just for reference, patent US20240174746A1 is where these values come from.
